# Target Or Test System: Keap1-Nrf2 PPI (Keap1 kelch domain protein, FITC labeled Nrf2 9 peptide) (Homo sapiens, UniProt Q14145)
# Construct: 10 μL 12 nm Keap1 kelch domain protein
# Sequence (Q14145 321-609 limits assumed): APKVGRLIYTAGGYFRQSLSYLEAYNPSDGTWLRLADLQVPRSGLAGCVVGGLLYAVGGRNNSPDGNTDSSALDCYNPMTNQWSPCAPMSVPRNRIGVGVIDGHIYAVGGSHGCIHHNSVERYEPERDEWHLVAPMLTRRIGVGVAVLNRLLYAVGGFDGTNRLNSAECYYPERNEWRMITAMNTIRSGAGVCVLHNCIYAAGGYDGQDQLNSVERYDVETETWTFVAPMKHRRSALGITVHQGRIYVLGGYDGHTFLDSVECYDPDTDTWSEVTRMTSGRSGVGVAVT
# Method Notes: Fluorescence polarization based Keap1-Nrf2 PPI competitive inhibition experiment (FP experiment)
# Assay type: binding
# Reported Conditions: FP experiment; general formula III compounds; unit inferred
pIC50: −log10 of the molar value.
Metric Name: pIC50

Past entries and their recorded results:
- Smiles Code: "C#CCN(c1ccc(NS(=O)(=O)c2cccc(OC)c2)c2ccccc12)[C@@H](C)CC(=O)O"
  pIC50: 6.62
- Smiles Code: "C#CCN(c1ccc(NS(=O)(=O)c2ccc(F)cc2)c2ccccc12)[C@@H](C)CC(=O)O"
  pIC50: 5.40
- Smiles Code: "C#CCN(c1ccc(NS(=O)(=O)c2ccccc2C)c2ccccc12)[C@@H](C)CC(=O)O"
  pIC50: 6.62

[I] C#CCN(c1ccc(NS(=O)(=O)c2ccccc2OC)c2ccccc12)[C@@H](C)CC(=O)O
[II] C#CCN(c1ccc(NS(=O)(=O)c2ccc(C(C)C)cc2)c2ccccc12)[C@@H](C)CC(=O)O
[III] C#CCN(c1ccc(NS(=O)(=O)c2ccc(C)cc2C)c2ccccc12)[C@@H](C)CC(=O)O
// ranking: key=pIC50, reverse=True Give the order by naming the labels one after another as requested.
III, II, I
(III: 7.03, II: 6.66, I: 5.70)
